assay-explanation: Half life in Kunming mouse brain homogenate at 500 uM by RP-HPLC method
Type: ADME, tissue-based
Field: label. Allowed values: label 1 (half-life at 500 µM < 5 h) or label 0 (half-life at 500 µM >= 5 h).

See these solved cases before continuing.
| molecule | label-class |
| --- | --- |
| C[C@@H](NC(=O)[C@@H](N)Cc1ccc(O)cc1)C(=O)NCC(=O)N[C@@H](Cc1ccc(Cl)cc1)C(N)=O | label 0 |
| NC(=O)[C@H](Cc1ccccc1)NC(=O)[C@H](Cc1c[nH]c2ccccc12)NC(=O)[C@@H]1CCCN1C(=O)[C@@H](N)Cc1ccc(O)cc1 [ENDOMORPHIN-1] | label 1 |
| C[C@@H](NC(=O)[C@@H](N)Cc1ccc(O)cc1)C(=O)NCC(=O)N[C@@H](Cc1ccccc1)C(N)=O | label 1 |
| C[C@@H](NC(=O)[C@H](Cc1ccc(O)cc1)NC(=N)N)C(=O)NCC(=O)N[C@@H](Cc1ccc(Cl)cc1)C(N)=O | label 0 |

Note: attention shifts to another entry.
IN: Item "C[C@@H](NC(=O)[C@H](Cc1ccc(O)cc1)NC(=N)N)C(=O)NCC(=O)N[C@@H](Cc1ccccc1)C(N)=O" : half-life at 500 µM beneath 5 h, strictly?
OUT: label 0
